Target: T1, recombinant human IP-10 (human, UniProt P02778 22-98)
T1 construct: Bought from R&D Systems; also called CXCL10; rhIP-10
T1 sequence: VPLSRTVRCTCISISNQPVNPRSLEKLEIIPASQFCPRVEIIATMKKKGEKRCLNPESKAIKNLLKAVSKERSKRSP
Experiment: Biacore (SPR)
Below, each entry is listed alongside its reported koff.

Completed entries (count: 3):
binder="humanized monoclonal antibody HuAIP12 (antibody, human IgG1, V domains shown, Human IgG1/kappa; also called unmodified HuAIP12; Wild Type) VH: EVQLVQSGAEVKKPGATVKISCKVSGYTFTDYSMHWVRQAPGKGLKWMGWINTETGEPTYADDFKGRFTFTLDTSTSTAYMELSSLRSEDTAVYYCARNYDYDGYFDVWGQGTTVTVSS VL: DIQMTQSPSSLSASVGDRVTITCKASQDINKYIAWYQQKPGKAPKLLIHYTSTLQPGIPSRFSGSGSGRDYTFTISSLQPEDIATYYCLQYDNLLFTFGQGTKLEIK" value_type=koff reported_value="0.000357 s⁻¹"
binder="murine monoclonal antibody AIP12 (antibody, V domains shown, Mouse hybridoma antibody; also called MuAIP12) VH: QIQLVQSGPELKKPGETVKISCKASGYTFTDYSMHWVKQAPGKGLKWMGWINTETGEPTYADDFKGRFAFSLETSASTAYLQINNLKNEDTATYFCARNYDYDGYFDVWGAGTTVTVSS VL: DIQMTQSPSSLSASLGGKVTITCKASQDINKYIAWYQHKPGKGPRLLIHYTSTLQPGIPSRFSGSGSGRDYSFSISNLEPEDIATYYCLQYDNLLFTFGSGTKLEIK" value_type=koff reported_value="0.000282 s⁻¹"
binder="murine monoclonal antibody AIP13 (antibody, V domains shown, Mouse hybridoma antibody; Mouse IgG1/kappa was used as its isotype control; also called MuAIP13) VH: QIQLVQSGPELKKPGETVKISCKASGYTFTDYSMHWVKQAPGKGLKWMGWINTEIGEPTYADDFKGRFAFSLETSASTAYLQINNLKNEDTATYFCARNYDYDAYFDVWGAGTTVTVSS VL: DIQMTQSPSSLSASLGGKVTITCKADQDINKYIAWYQHKPGRGPRLLLHHTSTLQPGIPSRFSGSGSGRDYSFSISNLEPADIATYYCLQYDSLLFTFGSGTKLEIK" value_type=koff reported_value="0.000196 s⁻¹"

IN: # koff lookup, item humanized monoclonal antibody HuAIP13 (antibody, human IgG1, V domains shown, Human IgG1/kappa) VH: EVQLVQSGAEVKKPGATVKISCKVSGYTFTDYSMHWVRQAPGKGLKWMGWINTEIGEPTYADDFKGRFTFTLDTSTSTAYMELSSLRSEDTAVYYCARNYDYDAYFDVWGQGTTVTVSS VL: DIQMTQSPSSLSASVGDRVTITCKADQDINKYIAWYQQKPGKAPKLLLHHTSTLQPGIPSRFSGSGSGRDYTFTISSLQPEDIATYYCLQYDSLLFTFGQGTKLEIK
OUT: 0.000194 s⁻¹
